Listing of recorded HC10 by entry.
System: Erythrocyte
Experiment: Hemolytic activity in mouse Red blood cells incubated for 1 hr by microplate reader assay
Format: toxicity, cell-based
Settings: erythrocyte, 1 h
Square brackets hold non-standard residues; d marks the D form. Peptide text beside a SMILES is read from it.
ASSAY_READOUT: HC10

- CC[C@H](C)[C@H](NC(=O)[C@H](CCCNC(=N)N)NC(=O)[C@H](CCCCN)NC(=O)[C@@H](CC(C)C)NC(=O)[C@H](CC(C)C)NC(=O)CN)C(=O)N[C@@H](CCCCN)C(=O)N[C@H](C(=O)N[C@H](CC(C)C)C(=O)N[C@H](CC(C)C)C(N)=O)[C@@H](C)O: > 300 µM
- CC(C)C[C@@H](NC(=O)[C@@H](CC(C)C)NC(=O)[C@@H](CCCCN)NC(=O)[C@@H](CCCCN)NC(=O)[C@@H](Cc1c[nH]c2ccccc12)NC(=O)[C@@H](Cc1c[nH]c2ccccc12)NC(=O)[C@@H](CCCCN)NC(=O)[C@@H](CC(C)C)NC(=O)[C@@H](CC(C)C)NC(=O)[C@H](N)CCCCN)C(N)=O (H-[dK][dL][dL][dK][dW][dW][dK][dK][dL][dL]-NH2): > 200 µM
- CC[C@H](C)[C@H](NC(=O)[C@H](CCCNC(=N)N)NC(=O)[C@H](CCCCN)NC(=O)[C@H](CC(C)C)NC(=O)[C@H](CC(C)C)NC(=O)CN)C(=O)N[C@@H](CCCCN)C(=O)N[C@H](C(=O)N[C@H](CC(C)C)C(=O)N[C@H](CC(C)C)C(N)=O)[C@@H](C)O: > 300 µM
